# Assay Text: in vitro
# Format: in vitro ADME
# Condition Info: mouse, plasma
Readout Label: half-life at 1 µM (min)
Number only, in min; omit the unit.

The cases that follow already have their half-life at 1 µM on record.
Query :: Entry under review: CC(C)C(=O)ONc1ccn([C@@H]2O[C@H](CO)[C@@H](O)[C@H]2O)c(=O)n1 [EX-3] . Reported half-life at 1 µM?
Result :: 0.6

Query :: Entry to check: CC(C)C(=O)OC[C@H]1O[C@@H](n2ccc(NO)nc2=O)[C@H](O)[C@@H]1O [Molnupiravir]
Result :: 25.8

Query :: Entry to check: CC(=O)ONc1ccn([C@@H]2O[C@H](CO)[C@@H](O)[C@H]2O)c(=O)n1 [EX-2]
Result :: 7.4

Query :: Entry to check: COC(C)(C)C(=O)ONc1ccn([C@@H]2O[C@H](CO)[C@@H](O)[C@H]2O)c(=O)n1 [EX-53]
Result :: 3.1

***
Query :: Entry under review: O=C(ONc1ccn([C@@H]2O[C@H](CO)[C@@H](O)[C@H]2O)c(=O)n1)C1CC1 [EX-15] . Reported half-life at 1 µM?
Result :: 5.2
